All figures here come from PubChem BioAssay AID1194.

Test system: Salmonella typhimurium Ames mutagenicity, literature compiled
Test: DSSTox (CPDBAS) Carcinogenic Potency Database Salmonella Mutagenicity
Active and inactive are the calls of the source.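 How the source made its calls: active means chemicals rated mutagenic or weakly mutagenic in the Salmonella bacterial test by one literature review, or positive overall by another; inconclusive means no clear call, values can overlap the other calls; inactive means the rest.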
parameter: outcome

# compound, result
measured = [
    ("CC(O)COC(C)(C)C (configuration not stated)", "active; inactive"),
    ("[O]=[Mo](=[O])=[O]", "inactive; active"),
    ("CC(O)CN(CC(C)O)CC(C)O (configuration not stated)", "inactive; active"),
    ("ClC1C(Cl)C(Cl)C(Cl)C(Cl)C1Cl (configuration not stated)", "inactive; active"),
    ("CC(=O)Nc1nc(-c2ccc([N+](=O)[O-])o2)cs1", "active; inactive"),
    ("CC#N", "inactive"),
    ("O=C1CN(/N=C/c2ccc([N+](=O)[O-])o2)C(=O)N1", "active"),
    ("CCCN(N=O)C(N)=O", "active"),
    ("C[C@@H]1O[C@@H](OC[C@H]2O[C@@H](Oc3c(-c4ccc(O)c(O)c4)oc4cc(O)cc(O)c4c3=O)[C@H](O)[C@@H](O)[C@@H]2O)[C@H](O)[C@H](O)[C@H]1O", "active; inactive"),
    ("[O-]/[N+](=N\\O)c1ccccc1", "active; inactive"),
    ("C[C@]12C=CC(=O)C=C1CC[C@@H]1[C@@H]2[C@@H](O)C[C@@]2(C)[C@H]1CC[C@]2(O)C(=O)CO", "inactive; active"),
    ("Cc1cc(C)nc(NS(=O)(=O)c2ccc(N)cc2)n1", "inactive"),
]
